# Test details: Apparent permeability in pig LLC-PK1 cells at 5 uM
# Assay type: ADME, cell-based, Sus scrofa
Assay readout: Papp at 5 µM (×10⁻⁶ cm/s)

The following molecules have reported results that may help.
[
  {
    "Structure": "C[C@H]1NC(=O)c2cc(-c3cccc4c(=O)n(C5CC5)c(NC5(C)CC5)nc34)[nH]c21",
    "Readout unit": "×10⁻⁶ cm/s",
    "Quantitative readout": 23
  },
  {
    "Structure": "C[C@H]1NC(=O)c2cc(-c3cccc4c(=O)n([C@@H](C)c5cn(C)cn5)c(NC5(C)CC5)nc34)[nH]c21",
    "Readout unit": "×10⁻⁶ cm/s",
    "Quantitative readout": 35
  },
  {
    "Structure": "C[C@H]1NC(=O)c2cc(-c3cccc4c(=O)n(C5(C)CC5)c(NC5(C)CC5)nc34)[nH]c21",
    "Readout unit": "×10⁻⁶ cm/s",
    "Quantitative readout": 32
  }
]

I = C[C@H]1NC(=O)c2cc(-c3cccc4c(=O)n(C)c(NC(C)(C)C)nc34)[nH]c21
II = C[C@H]1NC(=O)c2cc(-c3cccc4c(=O)n(C)c(NC5(C)CC5)nc34)[nH]c21
API: POST /compare with I and II ; response names the item with higher Papp at 5 µM. Kindly give the label for the entry you pick.
I
